tested on: 422866-222-R5-J1-PDC spheroid viability; assay: Anticancer human tumor 422866-222-R5-J1-PDC patient-derived pancreatic adenocarcinoma cell line growth inhibition [CLK]; settings: second compound 3.16 µM; first compound 0.0316 µM; spheroids with HUVEC and MSC; active = viability on the fitted dose curve at most 10% of control; inactive = the rest
Response enum: y for active, n for inactive

// below: answered compounds
CCCS(=O)(=O)Nc1ccc(F)c(C(=O)c2c[nH]c3ncc(-c4ccc(Cl)cc4)cc23)c1F + CN1CCN(c2cc(C(=O)Nc3cc4cc(-c5cnn(C)c5)ccc4cn3)ccn2)CC1 | n
COc1c(OCCCN2CCOCC2)ccc2c3n(c(=NC(=O)c4cnc(N)nc4)nc12)CCN3 + CNC(=O)c1ccc(Nc2nc(OC3CCCC3)c3c(-c4ccc5nc(C)oc5c4)c[nH]c3n2)c(OC)c1 | n
Cn1ncnc1[C@H]1c2n[nH]c(=O)c3cc(F)cc(c23)N[C@@H]1c1ccc(F)cc1 + CNC(=O)c1ccc(Nc2nc(OC3CCCC3)c3c(-c4ccc5nc(C)oc5c4)c[nH]c3n2)c(OC)c1 | n

Can you look up the reported call for COc1cccc2c1C(=O)c1c(O)c3c(c(O)c1C2=O)CC(O)(C(=O)CO)CC3OC1CC(N)C(O)C(C)O1 (centres undefined) + CNC(=O)c1ccc(Nc2nc(OC3CCCC3)c3c(-c4ccc5nc(C)oc5c4)c[nH]c3n2)c(OC)c1 for me?
n

Can you look up the reported call for COC1C=CCC(C)C(C)S(=O)(=O)NC(=O)c2ccc3c(c2)N(CC2CCC21)CC1(CCCc2cc(Cl)ccc21)CO3 (centres undefined) + CN1CCN(c2cc(C(=O)Nc3cc4cc(-c5cnn(C)c5)ccc4cn3)ccn2)CC1 for me?
y

Can you look up the reported call for O=C(c1cc(Cc2n[nH]c(=O)c3ccccc23)ccc1F)N1CCN(C(=O)C2CC2)CC1 + CN1CCN(c2cc(C(=O)Nc3cc4cc(-c5cnn(C)c5)ccc4cn3)ccn2)CC1 for me?
n

---

test system: 422866-222-R5-J1-PDC spheroid viability; experiment: Anticancer human tumor 422866-222-R5-J1-PDC cell line growth inhibition [CLK]; details: second compound 0.0316 µM; first compound 0.316 µM; hits give low values; spheroids with HUVEC and MSC;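 also: spheroids exposed to agents for seven days before readout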
Friendly reminder: viability, T/C below 80% is True, at or above is False.

// below: answered compounds
COc1ccc([C@@H](O)c2cc(-c3ncnc4cc(N5CCOCC5)ccc34)c(F)cc2Cl)nn1 + CNC(=O)c1ccc(Nc2nc(OC3CCCC3)c3c(-c4ccc5nc(C)oc5c4)c[nH]c3n2)c(OC)c1 | True
CC1COCCN1c1cc(C2(S(C)(=N)=O)CC2)nc(-c2ccnc3[nH]ccc23)n1 (stereo not given) + CNC(=O)c1ccc(Nc2nc(OC3CCCC3)c3c(-c4ccc5nc(C)oc5c4)c[nH]c3n2)c(OC)c1 | False
O=C(c1cc(Cc2n[nH]c(=O)c3ccccc23)ccc1F)N1CCN(C(=O)C2CC2)CC1 + CN1CCN(c2cc(C(=O)Nc3cc4cc(-c5cnn(C)c5)ccc4cn3)ccn2)CC1 | False

As a next step, examine the compound that follows.
Identify whether the compound CC1(C)CCC(CN2CCN(c3ccc(C(=O)NS(=O)(=O)c4ccc(NCC5CCOCC5)c([N+](=O)[O-])c4)c(Oc4cnc5[nH]ccc5c4)c3)CC2)=C(c2ccc(Cl)cc2)C1 + CNC(=O)c1ccc(Nc2nc(OC3CCCC3)c3c(-c4ccc5nc(C)oc5c4)c[nH]c3n2)c(OC)c1 records viability, T/C below 80%.
False
